Provide the reported log2 ratio of Biotin-Ahx-Ub-VS probe labelling of each item.
Molecular target: UCHL1 (UniProt P09936)
Sequence (P09936 whole entry, looked up, the tested form may be a part): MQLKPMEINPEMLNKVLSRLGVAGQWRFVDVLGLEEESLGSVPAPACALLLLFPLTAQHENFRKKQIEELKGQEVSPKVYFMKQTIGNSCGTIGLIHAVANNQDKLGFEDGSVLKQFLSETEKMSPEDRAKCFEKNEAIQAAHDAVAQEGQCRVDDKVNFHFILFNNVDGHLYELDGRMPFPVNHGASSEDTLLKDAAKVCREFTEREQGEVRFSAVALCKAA
Test: log2 ratio of Biotin-Ahx-Ub-VS probe labelling (fragment/DMSO); higher = less target engagement (more negative = stronger competition), active = hit call of the paper (q ≤ 0.05, log2 ratio ≤ -1)
Conditions: compound concentration: 200 uM; treatment time: 3 h
Answers are plain numbers.

# annotated cases, reported log2 ratio of Biotin-Ahx-Ub-VS probe labelling shown
O=C(CCl)NCc1cccc(N2CCCC2=O)c1 ... -0.979
O=C(CCl)NCC1(c2ccccc2)CC1 ... -1.22
N#Cc1ccccc1N1CCN(C(=O)CCl)CC1 ... -2.04

Hey, can you go through the list below and give me log2 ratio of Biotin-Ahx-Ub-VS probe labelling for every item?
1. CC(=O)C1CCCCN1C(=O)CCl (centres undefined)
2. O=C(CCl)N(C1CCCC1)C1CCS(=O)(=O)C1 (centres undefined)
3. CC(c1ccccc1)N(C)C(=O)CCl (centres undefined)

Result block:
[-1.44, -1.47, -0.925]

I'm hoping you can list log2 ratio of Biotin-Ahx-Ub-VS probe labelling for every compound here, please.
1. O=C(CCl)Nc1nc(-c2cccs2)cs1
2. O=C(CCl)N1c2ccccc2NC(=O)C12CCCC2
3. CCC(NC(=O)CCl)c1ccc(Cl)cc1 (centres undefined)
4. O=C(CCl)Nc1cccc2ncccc12

Result block:
[-1.45, -0.493, -1.12, -1.25]

* * *

Target: OTUD4 (UniProt Q01804)
Sequence (Q01804 whole entry, the tested form may be a part): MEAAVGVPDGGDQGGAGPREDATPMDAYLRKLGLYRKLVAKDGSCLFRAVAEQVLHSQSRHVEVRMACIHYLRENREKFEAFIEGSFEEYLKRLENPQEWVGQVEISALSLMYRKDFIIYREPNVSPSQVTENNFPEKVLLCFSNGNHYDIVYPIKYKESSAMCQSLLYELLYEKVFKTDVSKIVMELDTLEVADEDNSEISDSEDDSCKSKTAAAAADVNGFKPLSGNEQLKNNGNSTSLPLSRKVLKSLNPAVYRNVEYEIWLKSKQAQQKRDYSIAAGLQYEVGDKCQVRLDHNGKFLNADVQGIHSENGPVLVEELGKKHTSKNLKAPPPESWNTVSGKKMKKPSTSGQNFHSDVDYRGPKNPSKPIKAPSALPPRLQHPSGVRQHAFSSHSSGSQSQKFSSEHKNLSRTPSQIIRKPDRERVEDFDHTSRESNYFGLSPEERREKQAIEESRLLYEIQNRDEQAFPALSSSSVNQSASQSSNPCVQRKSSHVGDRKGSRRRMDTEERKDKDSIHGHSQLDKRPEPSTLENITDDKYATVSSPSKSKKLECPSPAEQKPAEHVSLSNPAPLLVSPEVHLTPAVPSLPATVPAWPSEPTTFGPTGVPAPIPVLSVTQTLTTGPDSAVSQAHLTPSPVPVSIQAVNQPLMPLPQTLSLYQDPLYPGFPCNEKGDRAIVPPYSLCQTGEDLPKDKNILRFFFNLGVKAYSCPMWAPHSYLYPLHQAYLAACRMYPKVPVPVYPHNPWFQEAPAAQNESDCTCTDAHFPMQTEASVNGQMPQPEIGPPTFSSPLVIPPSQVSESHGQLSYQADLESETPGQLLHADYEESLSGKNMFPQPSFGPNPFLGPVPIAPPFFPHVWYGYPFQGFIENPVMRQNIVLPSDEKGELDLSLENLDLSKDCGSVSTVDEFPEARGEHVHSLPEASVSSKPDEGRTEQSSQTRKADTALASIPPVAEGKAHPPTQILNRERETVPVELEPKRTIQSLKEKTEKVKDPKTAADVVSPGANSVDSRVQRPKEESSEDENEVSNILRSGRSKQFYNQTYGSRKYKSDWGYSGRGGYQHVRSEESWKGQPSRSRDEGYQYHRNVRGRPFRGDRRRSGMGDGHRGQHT
Test: log2 ratio of Biotin-Ahx-Ub-VS probe labelling (fragment/DMSO); higher = less target engagement (more negative = stronger competition), active = hit call of the paper (q ≤ 0.05, log2 ratio ≤ -1)
Details: compound concentration: 200 uM; treatment time: 3 h
Kindly supply the reported log2 ratio of Biotin-Ahx-Ub-VS probe labelling values for the records listed here.
Give bare numbers.

Below are worked cases with known answers.
Cc1ccc(CN(C)C(=O)CCl)o1 ... 0.05
O=C(CCl)NC1CCC(C(F)(F)F)CC1 (configuration not stated) ... -0.576

For every item in the list below, what is its measured log2 ratio of Biotin-Ahx-Ub-VS probe labelling?
1. Cc1cccc2nc(CCNC(=O)CCl)cn12.Cl
2. Cl.Cn1c(CNC(=O)CCl)nc2cccnc21
3. Cc1cccc(NC(=O)[C@@H]2CCCN2C(=O)CCl)n1
4. Cc1cnc2[nH]cc(CCNC(=O)CCl)c2c1
5. CN(CCC(O)c1ccc(Br)cc1)C(=O)CCl (configuration not stated)
6. O=C(CCl)NCc1ccc2c(c1)OCO2

Result block:
1. -0.21
2. -0.388
3. -0.432
4. -0.139
5. -0.192
6. -0.266

Batch: log2 ratio of Biotin-Ahx-Ub-VS probe labelling for all items listed.
1. O=C(CCl)Nc1cc(Cl)ccc1-n1cncn1
2. CCN(C(=O)CCl)C1CCCCC1
3. Cc1nc(CN2CCN(C(=O)CCl)CC2)cs1
4. Cc1ccc(CN(CCO)C(=O)CCl)cc1
5. O=C(CCl)Nc1cccc2ncccc12
6. O=C(CCl)NC1(c2ccc3c(c2)OCCO3)CCCC1
7. Cn1cc(CN(Cc2ccc(Cl)cc2)C(=O)CCl)cn1

Result block:
-0.779
-0.12
-0.0355
-0.355
-0.176
-1.1
0.0527

For every listed record, write down its log2 ratio of Biotin-Ahx-Ub-VS probe labelling.
1. C#Cc1cccc(NC(=O)CCl)c1
2. Cc1cc(CC(C)NC(=O)CCl)n[nH]1 (configuration not stated)

Result block:
-0.211
-0.115
